Provenance of the data: PubChem BioAssay AID1159580

Experiment: chemical genetic growth profiling, strain panel (AID 1159580);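 further: tested at 20 µM; growth read once vehicle control cultures reached saturation at 30 °C; lower values mean less growth of the strain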
Conditions: S. cerevisiae deletion strains, growth OD, locus YGR052W, strain FMP48, stronger effect = lower value
In all, about 5,500 compounds went through this assay and about 2,000 (36%) were called active. Another 18% or so got no clear call; they are omitted. The list shows a part of the results.
# Yes = normalized growth below 1 (exclusive); No = normalized growth at/above 1

>>> label_value("Cc1c(NCN2C(=O)CCC2=O)cc2c(c1[N+](=O)[O-])C(C)(C)CC2(C)C")
"Yes"
>>> label_value("COc1cccc(C(=O)C(C#N)=C(SC)SC)c1")
"Yes"
>>> label_value("N#Cc1c(N)sc2c1CCc1ccccc1-2")
"Yes"
>>> label_value("FC(F)(F)c1ccc(C2Sc3ccccc3N=C3c4ccccc4CC32)cc1 (stereo unspecified)")
"No"

stdin: Lab note: confirm whether the reported normalized growth for this molecule is below 1, equality not counting. molecule: "CSC(SC)=C(C#N)C(=O)c1ccccc1Cl"
stdout: Yes
